Molecular target: porcine pancreatic lipase (Sus scrofa, UniProt P00591)
Construct: purchased Sigma-Aldrich Corp
Sequence (P00591 1-450): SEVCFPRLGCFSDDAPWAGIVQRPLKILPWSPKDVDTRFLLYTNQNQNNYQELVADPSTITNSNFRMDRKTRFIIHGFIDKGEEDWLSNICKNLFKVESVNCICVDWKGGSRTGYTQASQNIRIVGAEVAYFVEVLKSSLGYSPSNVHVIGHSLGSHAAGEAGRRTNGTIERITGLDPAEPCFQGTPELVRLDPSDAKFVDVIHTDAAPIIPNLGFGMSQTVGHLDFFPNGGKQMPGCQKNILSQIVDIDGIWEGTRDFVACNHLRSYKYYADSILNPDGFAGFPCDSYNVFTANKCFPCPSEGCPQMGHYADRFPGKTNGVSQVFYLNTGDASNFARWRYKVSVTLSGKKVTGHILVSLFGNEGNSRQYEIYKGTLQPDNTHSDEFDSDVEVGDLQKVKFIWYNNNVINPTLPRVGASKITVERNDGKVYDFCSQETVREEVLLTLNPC
Assay: Measurement of lipase inhibitory activity (Example 6; 4-MUO substrate, fluorescence)
Format: biochemical
Conditions: Example 6 method, substrate 12.5 μM, 25° C., 30-minute reaction; read-out: Lipase Inhibitory Activity per mole IC50
# key: entry, value: IC50

COMPOUND | UNITS LABEL | IC50
O=C(O[C@@H]1Cc2c(O)cc(O)cc2O[C@@H]1c1cc(O)c(=O)c2c(O)c(O)cc([C@@H]3Oc4cc(O)cc(O)c4C[C@H]3OC(=O)c3cc(O)c(=O)c4c(O)c(O)cc([C@H]5Oc6cc(O)cc(O)c6C[C@H]5OC(=O)c5cc(O)c(O)c(O)c5)c4c3)c2c1)c1cc(O)c(O)c(O)c1 (stereo in doubt) | nM | 138
O=C(O)c1cc(O)c(=O)c2c(O)c(O)cc([C@H]3Oc4cc(O)cc(O)c4C[C@H]3O)c2c1 [Compound 9, epitheaflavic acid] | nM | 4630
O=c1c(O)cccc2cc(O)c(O)c(O)c12 | nM | 413
O=c1c(O)cccc2c([C@H]3Oc4cc(O)cc(O)c4C[C@H]3O)cc(O)c(O)c12 | nM | 984
O=C(O[C@@H]1Cc2c(O)cc(O)cc2O[C@@H]1c1cc(O)c(=O)c2c(O)c(O)cc([C@@H]3Oc4cc(O)cc(O)c4C[C@@H]3O)c2c1)c1cc(O)c(=O)c2c(O)c(O)cc([C@H]3Oc4cc(O)cc(O)c4C[C@H]3O)c2c1 (stereo in doubt) | nM | 178
O=C(O[C@@H]1Cc2c(O)cc(O)cc2O[C@@H]1c1cc(O)c(=O)c2c(O)c(O)cc([C@@H]3Oc4cc(O)cc(O)c4C[C@H]3OC(=O)c3cc(O)c(O)c(O)c3)c2c1)c1cc(O)c(=O)c2c(O)c(O)cc([C@H]3Oc4cc(O)cc(O)c4C[C@H]3OC(=O)c3cc(O)c(O)c(O)c3)c2c1 (stereo in doubt) | nM | 135
O=C(O[C@@H]1Cc2c(O)cc(O)cc2O[C@@H]1c1ccc(O)c(O)c1)c1cc(O)c(=O)c2c(O)c(O)c(O)cc2c1 | nM | 207
O=C(O)c1cc(O)c(=O)c2c(O)c(O)cc([C@H]3Oc4cc(O)cc(O)c4C[C@H]3OC(=O)c3cc(O)c(O)c(O)c3)c2c1 [Compound 11, epitheaflavic acid-3-O-gallate] | nM | 266
O=C(O[C@@H]1Cc2c(O)cc(O)cc2O[C@@H]1c1ccc(O)c(O)c1)c1cc(O)c(=O)c2c(O)c(O)cc([C@H]3Oc4cc(O)cc(O)c4C[C@H]3OC(=O)c3cc(O)c(O)c(O)c3)c2c1 [Compound 5, theaflavate A] | nM | 202
Oc1cccc(O)c1O [pyrogallol, reference compound] | nM | 17300

These measurements were taken from patent US9169231B2.
